- Test system: SNB-19
- test-method-notes: NCI tumour cell line growth inhibition, 48 h
Activity calls are given as the source filed them. No stated cut-off is given here; in the data, active = GI50 up to about 1.1 µM and inactive = higher.
measurement-label: GI50

molecule	GI50
Cc1cc(S(=O)(=O)Nc2nc3ccccc3nc2-c2cccc([N+](=O)[O-])c2)c(S)cc1Cl	16.5 µM (inactive)
O=C(O)c1c(CC(Cc2ccc3c(c2)CCC3)C(=O)O)ccc2c1CCC2 (stereo not drawn)	> 100 µM (inactive)
OC(c1cc(C(O)(C(F)(F)F)C(F)(F)F)ncn1)(C(F)(F)F)C(F)(F)F	> 10 µM (inactive)
COc1ccc(OC)c2c(C(C)=O)cccc12	> 100 µM (inactive)
CCN1C[C@]2(C)CC[C@H](OC)C34C5C[C@@H]6[C@@H](OC)C[C@@](OC)(C5[C@H]6OCc5ccccc5)C(C13)[C@H](OC(C)=O)[C@@H]42 (stereo partly drawn)	> 100 µM (inactive)

Batch request: GI50 per item, same order as input.
1. O=C(O)CCc1cccc2c1oc1c(CCC(=O)O)cccc12
2. C=C1CC2(C[C@@H](c3ccccc3)O[C@@H](c3ccccc3)C2)OC1=O (stereo partly drawn)
3. CO/C(=N\N=C\c1cccc(Cl)c1)c1ccncc1

["> 100 µM (inactive)", "15.2 µM (inactive)", "> 10 µM (inactive)"]

###

- Tested on: ACHN
- test-method-notes: NCI tumour cell line growth inhibition, 48 h
Activity calls are given as the source filed them. Cut-off read from the data, not from the text of the source: active = GI50 up to about 1.1 µM and inactive = higher.
Kindly state GI50 for each of the entries shown.

Solved entries (count: 5):
                                   compound               result
0  Cc1ccc(NC(=O)SCCC(=O)O)cc1NC(=O)SCCC(=O)O  > 100 µM (inactive)
1  O=C1/C(=C/c2ccccc2)CN(C(=O)Oc2ccc(Cl)cc2)C/C1=C\c1ccccc1   3.03 µM (inactive)
2  CS(=O)(=O)CCC(N)P(=O)(O)O (stereo unspecified)  > 100 µM (inactive)
3  CC(C)c1cccc(C(C)C)c1NC(=O)C(=O)C1SC(=S)NC1=O (stereo unspecified)  > 100 µM (inactive)
4  CC1=C(CCC(C)CO)O[C@H]2C[C@H]3[C@@H]4CC[C@H]5C[C@@H](O)CC[C@]5(C)[C@H]4CC(=O)[C@]3(C)[C@@H]12 (stereo partly specified)   17.5 µM (inactive)

For the compound shown here, `NC12c3c4cccc3Oc3cccc(c31)Oc1cccc(c12)O4` , give the reported GI50. > 50 µM (inactive)

###

- Test system: UACC-257
- test-method-notes: NCI tumour cell line growth inhibition, 48 h
Active and inactive are the calls of the source. Cut-off read from the data, not from the text of the source: active = GI50 up to about 1.1 µM and inactive = higher.
Allowed answers: 1.0 = active, 0.0 = inactive

Worked examples follow.
>>> df
                                   molecule  class
0  C=C(COC(=O)C(C)C)[C@H]1Oc2ccc(C(C)=O)cc2[C@@H]1OC(=O)C(C)C    0.0
1  NC(=O)c1csc(C2OC(CO)C(O)C2O)n1 (stereo not drawn)    0.0
2  CC(=O)OCC1=C(CCC#N)N2C(=O)C(NC(=O)Cc3cccs3)C2[S+]([O-])C1 (stereo not drawn)    0.0

Record lookup: outcome of this test for `O=C(O)CCc1cccc2c1oc1c(CCC(=O)O)cccc12` ? 0.0

Another molecule: CC(=O)c1ccc(NC(=O)C(=O)C(C#N)CC(C)(C)C=O)cc1 (stereo not drawn) 0.0

Proceed to `Cc1ccc([N+](=O)[O-])cc1NC(=O)C(=O)Cc1cc(=O)oc2cc(O)ccc12` 0.0

Entry CCOC(=O)C(N=C(c1ccccc1)c1ccccc1)N(C(=O)OC(C)(C)C)C(=O)OC(C)(C)C (stereo not drawn) please 0.0

// repeat for O=C1N/C(=N/N=C/C(O)C(O)C(O)CO)N/C1=C\c1ccco1 (stereo not drawn) and report 0.0

Next record, please: C=C1CCCC2OC(OC)CCC12 (stereo not drawn) 0.0

###

- Tested on: Malme-3M
- test-method-notes: NCI tumour cell line growth inhibition, 48 h
Activity calls are given as the source filed them. Cut-off read from the data, not from the text of the source: active = GI50 up to about 1.1 µM and inactive = higher.
API: response.call in 1.0 (active), 0.0 (inactive)

                                   compound  class
0  CC[C@H](CO)Nc1nc(NCc2ccccc2)c2ncn(C(C)C)c2n1 [SELICICLIB]    0.0
1  COc1ccc(/C=C2\CCC(CCN3CCOCC3)C2=O)cc1 (stereo unspecified)    0.0

Could you kindly confirm the outcome this assay logged for `CC(C)(C)OC(=O)NCCC(N)=S` ? 0.0

Could you do the same for O[C@]12C=C(c3nccc4c3[nH]c3ccccc34)[C@@H]3CCN(CCCC/C=C\CC1)C[C@@]31CC3/C=C\CCCCN3[C@H]12 (stereo partly specified) , please? 1.0

Next compound up: CC(=O)OCC1(CNc2nc(N)ncc2C#N)CC(CCc2ccccc2)C1 (stereo unspecified) 0.0

Try this compound too: COc1ccc(N[S+]([O-])C2CCCCC2)cc1 (stereo unspecified) 0.0

Entry `N=c1c2c3n(c4c(=O)n(-c5ccccc5)c(=S)n(c(=O)n1-c1ccccc1)c24)CCCCC3` please 0.0

Entry to check: `CCN(CC)C(=O)c1cc([N+](=O)[O-])c(=O)n2c1[nH]c1ccccc12` 0.0

Follow-up entry: C[NH+]1[C@@H](Cc2ccccc2)C(=O)O[B-]1(F)c1ccccc1 (stereo partly specified) 0.0

Then this compound: `CC1=C(Br)C(=O)c2c(O)ccc(O)c2C1=O` 1.0

###

- System: MDA-N
- test-method-notes: NCI tumour cell line growth inhibition, 48 h
Calls of active or inactive are those of the source. No stated cut-off is given here; in the data, active = GI50 up to about 1.1 µM and inactive = higher.
measurement-label: GI50

Recorded GI50, per entry:
molecule	measurement-label	result
CC1OC(OC2C(O[C@H]3CC[C@@]4(C)C(=CC[C@H]5[C@@H]6C[C@@H]7O[C@]8(CC[C@@H](CO)CO8)[C@@H](C)[C@@H]7[C@@]6(C)CC[C@@H]54)C3)OC(CO)C(O)C2OC2OC(CO)C(O)C(O)C2O)C(O)C(O)C1O (some centres undefined)	GI50	1.68 µM (inactive)
CCN(CC)C(=O)c1cc([N+](=O)[O-])c(=O)n2c1[nH]c1ccccc12	GI50	> 100 µM (inactive)
Cc1ccc(CCCCCOc2ccc(C3=NCCO3)cc2)s1	GI50	5.68 µM (inactive)

Please look at the following molecule next.
State the recorded GI50 for this entry: `Cc1cc2c(c(C(=O)NCCC(=O)O)c1)Oc1c(cc(C)cc1C(=O)NCCC(=O)O)S2` > 100 µM (inactive)

###

- Tested on: HCC 2998
- test-method-notes: NCI tumour cell line growth inhibition, 48 h
Activity calls are given as the source filed them. Rule as the data show it: active = GI50 up to about 1.1 µM and inactive = higher.
# valid calls are active, inactive; nothing else

Study these solved cases before continuing.
In [3]: df
Out[3]:
                                   compound  test_target     class
0            CCSc1nc(C)nc2c1sc1nc3ccccc3n12     HCC 2998  inactive
1  C/C=C(\C)c1cc(O)c(C)c2c1Oc1cc(O)c(Cl)c(C)c1C(=O)O2     HCC 2998  inactive
2  O=S(=O)(NC1OCCCC1I)c1ccccc1 (centres undefined)     HCC 2998  inactive
3  COc1cc(CC(C)NC(C)=O)cc(OC)c1 (centres undefined)     HCC 2998  inactive
4   O=C(CCc1nnc(S)[nH]1)Nc1cccc(C(F)(F)F)c1     HCC 2998  inactive

In this assay, the call recorded for `O=C(O)CCc1cccc2c1oc1c(CCC(=O)O)cccc12` was what? inactive

Repeat for the following compound: `Cc1cc2c(c(C(=O)NCCC(=O)O)c1)Oc1c(cc(C)cc1C(=O)NCCC(=O)O)S2` inactive

Continue with C#CCCCCC#CC1CCCC1C1=CC(=O)c2ccccc21 (centres undefined) inactive

What about this compound? CC1CC2=C(C1)C(C1(C)C(=O)CC3C(C1=O)C3(C)C)C(C)C2=O (centres undefined) inactive

Repeat with `O=c1oc2ccc(Cl)cc2cc1-c1cn2cc(Cl)ccc2n1` inactive

Would you mind doing OCC1OC(c2nc(C3=NCCCN3)cs2)C(O)C1O (centres undefined) as well? inactive

And what about the compound `CC1(C)S[C@@H]2[C@H](NC(=O)C3(N)CCCCC3)C(=O)N2[C@H]1C(=O)O` ? inactive

How about C[C@@H]1[C@@H](C)C(c2ccccc2)O[Si]1(C(C)(C)C)C(C)(C)C (some centres undefined) ? inactive

Next up: `COc1ccc(OC)c(NCC#N)c1` inactive

Likewise for `COc1cc(OC)c(/C=N/N=C(\N)NO)c(OC)c1` ? inactive

Try this compound too: CCOC(=O)C1(Br)C(c2ccccc2)NC(=O)NC1(C)Br (centres undefined) inactive

Then what about the compound `CC[C@H](CO)Nc1nc(NCc2ccccc2)c2ncn(C(C)C)c2n1` ? inactive

// query: `COc1cc2c(c3nc4ccccc4nc13)-c1ccc(SC)c(=O)cc1[C@@H](NC(C)=O)CC2` active

// same read-out, input: `O=C(CCCN1CCC2(CC1)OC(=O)N(c1ccccc1)C2=O)c1ccccc1` inactive
